# details: human, serum;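 further: human clinical chemistry: moderate when serum ALT or AST reaches 6× upper normal limit or alkaline phosphatase 1.7×, value counts indexed literature references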
readout_kind: Hepatotoxicity (moderate)
No unit in the answer, please; the number alone is enough.

Task item: What Hepatotoxicity (moderate) value was documented for this compound, CC(NN)c1ccccc1 (stereo not drawn) ?
Reply: 1

Task item: What Hepatotoxicity (moderate) value was documented for this compound, CSCC[C@H](N)C(=O)O ?
Reply: 1

Task item: What Hepatotoxicity (moderate) value was documented for this compound, CCC(C)n1ncn(-c2ccc(N3CCN(c4ccc(OC[C@H]5CO[C@](Cn6cncn6)(c6ccc(F)cc6F)O5)cc4)CC3)cc2)c1=O (stereo partly drawn) ?
Reply: 1

----------
# details: human, serum
Where a SMILES comes first, the peptide text is derived from it. Bridges are numbered along the chain shown (N, C = ends). [ ]: non-standard residue; d: D form.
readout_kind: Hepatotoxicity (moderate)
No unit in the answer, please; the number alone is enough.

Task item: What Hepatotoxicity (moderate) value was documented for this molecule, CC(=O)Nc1ccc(OC(=O)c2ccccc2OC(C)=O)cc1 [BENORILATE] ?
Reply: 0

Task item: What Hepatotoxicity (moderate) value was documented for this molecule, CN(C/C=C/C#CC(C)(C)C)Cc1cccc2ccccc12 ?
Reply: 21

Task item: What Hepatotoxicity (moderate) value was documented for this molecule, O=C(CCCN1CCC(O)(c2ccc(Cl)cc2)CC1)c1ccc(F)cc1 ?
Reply: 12

Task item: What Hepatotoxicity (moderate) value was documented for this molecule, CCN1CCN(C(=O)N[C@@H](C(=O)N[C@@H]2C(=O)N3C(C(=O)O)=C(CSc4nnnn4C)CS[C@H]23)c2ccc(O)cc2)C(=O)C1=O ?
Reply: 15

Task item: What Hepatotoxicity (moderate) value was documented for this molecule, NC(N)=Nc1nc(CSCCC(N)=NS(N)(=O)=O)cs1 ?
Reply: 12

Task item: What Hepatotoxicity (moderate) value was documented for this molecule, Sc1ncnc2[nH]ncc12 ?
Reply: 0

Task item: What Hepatotoxicity (moderate) value was documented for this molecule, CC#C[C@]1(O)CC[C@H]2[C@@H]3CCC4=CC(=O)CCC4=C3[C@@H](c3ccc(N(C)C)cc3)C[C@@]21C ?
Reply: 2

Task item: What Hepatotoxicity (moderate) value was documented for this molecule, CC(C)[C@@H]1NC(=O)[C@H](CCCCN)NC(=O)[C@@H](Cc2c[nH]c3ccccc23)NC(=O)[C@H](Cc2ccc(O)cc2)NC(=O)[C@@H](NC(=O)[C@H](N)Cc2ccccc2)CSSC[C@@H](C(=O)N[C@@H](Cc2c[nH]c3ccccc23)C(N)=O)NC1=O [VAPREOTIDE] (H-[dF]CY[dW]KVCW-NH2; disulfide 2-7) ?
Reply: 1

Task item: What Hepatotoxicity (moderate) value was documented for this molecule, O=C(c1ccc(OCCN2CCCCC2)cc1)c1c(-c2ccc(O)cc2)sc2cc(O)ccc12 ?
Reply: 1

Task item: What Hepatotoxicity (moderate) value was documented for this molecule, COc1c2occc2cc2ccc(=O)oc12 ?
Reply: 1

Task item: What Hepatotoxicity (moderate) value was documented for this molecule, CCS(=O)(=O)CCn1c([N+](=O)[O-])cnc1C ?
Reply: 1

Task item: What Hepatotoxicity (moderate) value was documented for this molecule, CC(=O)[C@@]1(O)CC[C@H]2[C@@H]3C=C(Cl)C4=CC(=O)[C@@H]5C[C@@H]5[C@]4(C)[C@H]3CC[C@@]21C ?
Reply: 4

Task item: What Hepatotoxicity (moderate) value was documented for this molecule, CO[C@H]1O[C@@H]2O[C@@]3(C)CC[C@H]4[C@H](C)CC[C@@H]([C@H]1C)[C@@]24OO3 ?
Reply: 1

Task item: What Hepatotoxicity (moderate) value was documented for this molecule, CC1Cc2ccccc2N1NC(=O)c1ccc(Cl)c(S(N)(=O)=O)c1 (stereo not drawn) [INDAPAMIDE] ?
Reply: 1

Task item: What Hepatotoxicity (moderate) value was documented for this molecule, Cc1nc(C)c2c(n1)N(Cc1ccc(-c3ccccc3-c3nnn[nH]3)cc1)C(=O)CC2 ?
Reply: 2

Task item: What Hepatotoxicity (moderate) value was documented for this molecule, CCNNC(=O)[C@@H]1[C@H](c2cc(OC)c(OC)c(OC)c2)c2cc3c(cc2[C@H](O)[C@H]1CO)OCO3 [MITOPODOZIDE] ?
Reply: 1

Task item: What Hepatotoxicity (moderate) value was documented for this molecule, O=C1Nc2ccccc2C1(c1ccc(O)cc1)c1ccc(O)cc1 ?
Reply: 0

Task item: What Hepatotoxicity (moderate) value was documented for this molecule, C/C=C(/CC)C(=O)NC(N)=O ?
Reply: 0

Where these numbers come from: ChEMBL document CHEMBL3137667
